Molecular target: c-Myc template DNA (c-myc quadruplex)
Test: Quadruplex binding / stop assay (Taq polymerase arrest, capillary electrophoresis)
Details: read-out: Stop Data c-Myc μM; concentration at which 50% of the DNA was arrested (arrested:full-length 1:1)
OBSERVABLE: IC50 (µM)

Here's what some known entries look like.
>>> val("CCN(CC)CCNc1c(F)cc2c(=O)c(C(=O)N3CCOCC3)cn3c2c1Oc1cc2ccccc2cc1-3 [compound 305]")
1.05
>>> val("N[C@@H]1CCN(c2c(F)cc3c(=O)c(C(=O)NCCN4CCCC4)cn4c3c2Oc2ccccc2-4)C1 [compound 112]")
1.75

1: CN(C)CCCCNC(=O)c1cn2c3c(c(N4CC[C@@H](NC(=O)CCN5CCOCC5)C4)c(F)cc3c1=O)Oc1cc3c(cc1-2)oc1ccccc13 [compound 176]
2: CN(C)CCCCNC(=O)c1cn2c3c(c(N4CC[C@@H](NC(=O)CCN5CCN(C)CC5)C4)c(F)cc3c1=O)Oc1cc3c(cc1-2)oc1ccccc13 [compound 357]
Looking only at measured IC50, which entry is lower, 1 or 2 ? Choose, then provide that item's label.
2
